read-out: Matrix Metallopeptidase 9 (MMP9), MMP9 (gene 4318); assay: BSK_BE3C_MMP9: BioMAP Diversity Plus: BE3C Assay for Matrix Metallopeptidase 9 (MMP9) Biomarker Activity (AID 2284283); conditions: primary human bronchial epithelial cells
Activity calls are given as the source filed them. Rule for the calls: active = hit-call score of the fitted dose curve at least 0.9, where 1 is the maximum; inactive = score below 0.9.
Labels: active, inactive

> print(dat)
                                   compound  category.label
1  CC(C)C1OCCN1CCOC(=O)NCCCCCCNC(=O)OCCN1CCOC1C(C)C (centres undefined)        inactive
2  OC(C(F)(F)F)(C(F)(F)F)C(O)(C(F)(F)F)C(F)(F)F          active
3        COc1cc(CNC(=O)CCCC/C=C/C(C)C)ccc1O        inactive
4  CCCCC(CC)COC(=O)C=Cc1ccc(OC)cc1 (centres undefined)        inactive

---

read-out: Thrombomodulin, THBD (gene 7056); experiment: BSK_3C_Thrombomodulin: BioMAP Diversity Plus: 3C Assay for Thrombomodulin Biomarker Activity (AID 2283029); conditions: primary human endothelial cells (HUVEC); actives raise or lower the signal
Active and inactive are the calls of the source. How the source made its calls: active means hit-call score of the fitted dose curve at least 0.9, where 1 is the maximum; inactive means score below 0.9.
Labels: YES = active, NO = inactive

> print(dat)
                                    molecule  category.label
 1                       COC(=O)/C=C\C(=O)OC              NO
 2  CC[N+](CC)(CC(=O)Nc1c(C)cccc1C)Cc1ccccc1 (tested in a mixture with another compound)              NO
 3                                 CCC(C)=NO              NO
 4  CN(C)c1ccc(C(c2ccccc2)c2ccc(N(C)C)cc2)cc1              NO
 5  COc1ccccc1Oc1c(NS(=O)(=O)c2ccc(C(C)(C)C)cc2)nc(-c2ncccn2)nc1OCCO              NO
 6          CCC[Si](OC(C)=O)(OC(C)=O)OC(C)=O              NO
 7                           Oc1cccc2ccccc12              NO
 8        CCCCCCCCCCC1CO1 (stereo not drawn)              NO
 9                O=C(C(=O)c1ccccc1)c1ccccc1              NO
10  CN(C)CCC(c1ccc(Cl)cc1)c1ccccn1 (stereo not drawn)              NO
11             COc1ccc(C(=O)c2ccccc2O)c(O)c1              NO
12             CCCCCCCCCCCCCCCCCC[N+](C)(C)C             YES
13  Cc1c(C(N)=O)cc([N+](=O)[O-])cc1[N+](=O)[O-]              NO

---

Experiment: TOX21_p53_BLA_p3_viability: Viability Assessment in the Tox21 HCT-116 p53 Agonism Beta-lactamase Assay, Phase 3 (AID 2283593);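 note: cells exposed to compound for 16 h before reading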
From the text: TOX21_p53_BLA_p3 is a cell-based, single-readout assay that uses HCT116, a human intestinal cell line, […] in a 1536-well plate.TOX21_p53_BLA_p3_viability is an assay readout measuring cellular ATP content and detected with CellTiter-Glo Luciferase-coupled ATP quantitation.TOX21_p53_BLA_p3_viability used a type of viability reporter where loss-of-signal activity can be used to understand changes in the cell viability. […]
Records with an inconclusive call do not appear. The source made the active and inactive calls. The calls were made as follows: active = hit-call score of the fitted dose curve at least 0.9, where 1 is the maximum; inconclusive = response in the unintended direction; inactive = score below 0.9.
Labels: active, inactive

> print(dat)
                                    compound  category.label
 1                          COc1cc(O)cc(O)c1        inactive
 2  CCNC(=O)C(C)OC(=O)Nc1ccccc1 (stereo not drawn)        inactive
 3         O=C1OC(=O)c2cc([N+](=O)[O-])ccc21        inactive
 4                 CCCCCCCC/C=C\CCCCCCCCOCCO          active
 5          CCCCCCCC(=O)Oc1c(Br)cc(C#N)cc1Br        inactive
 6                     CC/C=C\CC1=C(C)CCC1=O        inactive
 7      CCN(CC)CCNC(=O)c1ccc(NS(C)(=O)=O)cc1        inactive
 8            O=S(=O)(Oc1ccc(Cl)cc1)c1ccccc1        inactive
 9  CN(C)c1cc(NC(=O)CNC(C)(C)C)c(O)c2c1C[C@H]1C[C@H]3[C@H](N(C)C)C(=O)C(C(N)=O)=C(O)[C@@]3(O)C(=O)C1=C2O        inactive
10                O=C(O)c1c2ccccc2cc2ccccc12        inactive
11         O=P(O)(O)C(O)(Cc1cccnc1)P(=O)(O)O        inactive
12                           CCCCCOC(=O)CCCC        inactive
13   C=C(C)C(=O)OCC1CCCO1 (stereo not drawn)        inactive

---

test: IUF_NPC2-5_cytotoxicity_120hr: Cytotoxicity Assessment at 120 hours in the Leibniz Research Institute for Environmental Medicine (IUF) Neural Progenitor Cell Migration and Differentiation Assay (NPC2-5) (AID 2284307)
The source made the active and inactive calls. Rule for the calls: active = hit-call score of the fitted dose curve at least 0.9, where 1 is the maximum; inconclusive = response in the unintended direction; inactive = score below 0.9.
Labels: true (1) (active), false (0) (inactive)

> print(dat)
                                   molecule  category.label
1  CC(C)(C)NCC(O)c1cc(O)cc(O)c1 (stereo not given)       false (0)
2  C[C@@H]1C[C@H]2[C@@H]3CCC4=CC(=O)C=C[C@]4(C)[C@@]3(F)[C@@H](O)C[C@]2(C)[C@@]1(O)C(=O)CO        true (1)
3      NC(N)=Nc1nc(CSCCC(N)=NS(N)(=O)=O)cs1       false (0)
4          C[C@H](CS)C(=O)N1CCC[C@H]1C(=O)O       false (0)
5  CN(C)CCC(c1ccc(Cl)cc1)c1ccccn1 (stereo not given)       false (0)

---

read-out: Interleukin 2 (IL2), IL2 (gene 3558); test: BSK_BT_xIL2: BioMAP Diversity Plus: BT Assay for Interleukin 2 (IL2) Biomarker Activity (AID 2284245); conditions: primary human B cells with PBMC
Active and inactive are the calls of the source. The calls were made as follows: active = hit-call score of the fitted dose curve at least 0.9, where 1 is the maximum; inactive = score below 0.9.
Labels: active, inactive

> print(dat)
                                   molecule  category.label
1  CC(C)CC(=O)CC(C)CC(C)C (centres undefined)        inactive
2  Cc1cc(-n2nc3ccc(Cl)cc3n2)c(O)c(C(C)(C)C)c1        inactive
3                           Oc1cccc2ccccc12        inactive
4       CCCCCCCCCCC1CO1 (centres undefined)        inactive
5                O=C(C(=O)c1ccccc1)c1ccccc1        inactive
6                       COC(=O)/C=C\C(=O)OC          active
7  CN(C)CCC(c1ccc(Cl)cc1)c1ccccn1 (centres undefined)        inactive
8  CCCCCCCCCC/C=C/C1CC(=O)OC1=O (centres undefined)        inactive
9  CC[N+](CC)(CC(=O)Nc1c(C)cccc1C)Cc1ccccc1        inactive

---

test: TOX21_p53_BLA_p2_viability: Viability Assessment in the Tox21 HCT-116 p53 Agonism Beta-lactamase Assay, Phase 2 (AID 2283591);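 note: compound exposure lasted 16 h at 37 °C; actives lower the ATP signal meaning cytotoxicity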
Records with an inconclusive call do not appear. Active and inactive are the calls of the source. The calls were made as follows: active = hit-call score of the fitted dose curve at least 0.9, where 1 is the maximum; inconclusive = response in the unintended direction; inactive = score below 0.9.
Labels: active, inactive

> print(dat)
                                    compound  category.label
 1  CCCCCCCCCCCC(=O)OC[C@@H](O)[C@H]1OC[C@H](OCCO)[C@H]1OCCO        inactive
 2                              O=c1cccccc1O        inactive
 3      C=COCC1CCC(CO)CC1 (stereo not drawn)        inactive
 4                       Cc1ncc(CO)c(C=O)c1O        inactive
 5               O=C(/C=C/c1cccc(F)c1)NC1CC1        inactive
 6                             N=C(N)n1cccn1        inactive
 7  CC(C)C1OCCN1CCOC(=O)NCCCCCCNC(=O)OCCN1CCOC1C(C)C (stereo not drawn)        inactive
 8  O.O=C([O-])CC([S-])C(=O)[O-].[Au+].[Na+].[Na+] (stereo not drawn)        inactive
 9           CC(=O)c1ccc(OCC(=O)N2CCCCC2)cc1        inactive
10  COC(=O)C1CC(=O)C(C(=O)OC)CC1=O (stereo not drawn)        inactive
11  O=C(O)c1cc(N=Nc2ccc([N+](=O)[O-])cc2)ccc1O          active
12              COc1cc(C)nc(-n2nc(C)cc2OC)n1        inactive
13             Cc1c(C(=O)O)cccc1[N+](=O)[O-]        inactive
